Hey, just so you know, these numbers are from patent US8889705B2.

Tested on: MDA-MB-231 cells
test: Sulforhodamine B cell proliferation assay
Format: cell-based
condition-parameters: Homo sapiens; MDA-MB-231, 72 hours, SRB
measure: IC50 (µM)

[[record]]
compound = "COc1ccc2c(c1OC)C(=O)O[C@@H]2[C@H]1c2c(cc3c(c2OC)OCO3)CCN1C [Nos, reference compound]"
unit_name = "µM"
data_value = 36.3

[[record]]
compound = "COc1ccc2c(c1OC)C(=O)O[C@@H]2[C@H]1c2c(c(I)c3c(c2OC)OCO3)CCN1C [9-I-nos]"
unit_name = "µM"
data_value = 25.6

[[record]]
compound = "COc1ccc2c(c1OC)C(=O)O[C@@H]2[C@H]1c2c(c(Br)c3c(c2OC)OCO3)CCN1C [9-Br-nos]"
unit_name = "µM"
data_value = 3.3

[[record]]
compound = "COc1ccc2c(c1OC)C(=O)O[C@@H]2[C@H]1c2c(c(F)c3c(c2OC)OCO3)CCN1C [9-F-nos]"
unit_name = "µM"
data_value = 8.2

[[record]]
compound = "COc1ccc2c(c1OC)C(=O)OC2C1c2c(c(Cl)c3c(c2OC)OCO3)CCN1C (centres unmarked) [9-Cl-nos]"
unit_name = "µM"
data_value = 1.9


----------
Tested on: CEM/VM-1-5 cells
test: In vitro cell proliferation MTS assay
Format: cell-based
condition-parameters: Homo sapiens, CEM/VM-1-5, 72 hours
measure: IC50 (µM)

[[record]]
mol = "COc1ccc2c(c1OC)C(=O)O[C@@H]2[C@H]1c2c(c([N+](=O)[O-])c3c(c2OC)OCO3)CCN1C"
study_system = "CEM/VM-1-5 cells"
data_value = 6.9


----------
Tested on: MCF-7 cells
test: Cell cycle analysis (propidium iodide, flow cytometry)
Format: cell-based, human
condition-parameters: MCF-7, 25 μM, 72 h, mean ± S.E.M.
measure: G0/G1 (%)

[[record]]
compound = "COc1ccc2c(c1OC)C(=O)O[C@@H]2[C@H]1c2c(c(F)c3c(c2OC)OCO3)CCN1C [9-F-nos]"
unit_name = "%"
data_value = 5.2

[[record]]
compound = "COc1ccc2c(c1OC)C(=O)O[C@@H]2[C@H]1c2c(c(Br)c3c(c2OC)OCO3)CCN1C [9-Br-nos]"
unit_name = "%"
data_value = 4.6

[[record]]
compound = "COc1ccc2c(c1OC)C(=O)OC2C1c2c(c(Cl)c3c(c2OC)OCO3)CCN1C (centres unmarked) [9-Cl-nos]"
unit_name = "%"
data_value = 5.9

[[record]]
compound = "COc1ccc2c(c1OC)C(=O)O[C@@H]2[C@H]1c2c(c(I)c3c(c2OC)OCO3)CCN1C [9-I-nos]"
unit_name = "%"
data_value = 17

[[record]]
compound = "COc1ccc2c(c1OC)C(=O)O[C@@H]2[C@H]1c2c(cc3c(c2OC)OCO3)CCN1C [Nos, reference compound]"
unit_name = "%"
data_value = 20.5


----------
study-system: tubulin
Construct: other: 2 μM tubulin, 45 min at 37° C., double reciprocal plot; rate and extent of tubulin polymerization; other: 25 μM or 100 μM
test: Tubulin binding assay (fluorescence titration, quenching of intrinsic tubulin fluorescence)
Parameters: species or system mammalian
condition-parameters: 2 μM tubulin, 45 min at 37° C., double reciprocal plot; read-out: dissociation constant (Kd) for binding to tubulin
# note: exactly 40 µM is not below, so it is Not satisfied; use Satisfied for Kd strictly under it

[[record]]
mol = "COc1ccc2c(c1OC)C(=O)O[C@@H]2[C@H]1c2c(c(I)c3c(c2OC)OCO3)CCN1C"
qualitative_label = "Satisfied"

[[record]]
mol = "COc1ccc2c(c1OC)C(=O)O[C@@H]2[C@H]1c2c(c(Br)c3c(c2OC)OCO3)CCN1C"
qualitative_label = "Not satisfied"

[[record]]
mol = "COc1ccc2c(c1OC)C(=O)O[C@@H]2[C@H]1c2c(c([N+](=O)[O-])c3c(c2OC)OCO3)CCN1C"
qualitative_label = "Not satisfied"

[[record]]
mol = "COc1ccc2c(c1OC)C(=O)O[C@@H]2[C@H]1c2c(c(F)c3c(c2OC)OCO3)CCN1C"
qualitative_label = "Not satisfied"


----------
Test system: 1A9/PTX22 cells
test: Sulforhodamine B cell proliferation assay
Assay type: cell-based
condition-parameters: Homo sapiens, 1A9/ptx-22; 1A9/PTX22, 72 hours, SRB
measure: IC50

[[record]]
mol = "COc1ccc2c(c1OC)C(=O)O[C@@H]2[C@H]1c2c(c([N+](=O)[O-])c3c(c2OC)OCO3)CCN1C"
study_system = "1A9/PTX22 cells"
measure = "IC50"
data_value = "27.5 µM"


----------
G0/G1 listing for selected compounds.
Tested on: MCF-7 cells
test: Cell cycle analysis (propidium iodide, flow cytometry)
Format: cell-based, human
condition-parameters: MCF-7, 25 μM, 48 h, mean ± S.E.M.
measure: G0/G1 (%)

[[record]]
compound = "COc1ccc2c(c1OC)C(=O)O[C@@H]2[C@H]1c2c(c(F)c3c(c2OC)OCO3)CCN1C [9-F-nos]"
data_value = 7.9

[[record]]
compound = "COc1ccc2c(c1OC)C(=O)OC2C1c2c(c(Cl)c3c(c2OC)OCO3)CCN1C (centres unmarked) [9-Cl-nos]"
data_value = 8

[[record]]
compound = "COc1ccc2c(c1OC)C(=O)O[C@@H]2[C@H]1c2c(c(I)c3c(c2OC)OCO3)CCN1C [9-I-nos]"
data_value = 15.4

[[record]]
compound = "COc1ccc2c(c1OC)C(=O)O[C@@H]2[C@H]1c2c(cc3c(c2OC)OCO3)CCN1C [Nos, reference compound]"
data_value = 19.8

[[record]]
compound = "COc1ccc2c(c1OC)C(=O)O[C@@H]2[C@H]1c2c(c(Br)c3c(c2OC)OCO3)CCN1C [9-Br-nos]"
data_value = 6.5


----------
Test system: CEM cells
test: In vitro cell proliferation MTS assay
Type: cell-based
condition-parameters: Homo sapiens, CCRF-CEM, 72 hours
IC50 listing for selected molecules.
measure: IC50 (µM)

[[record]]
molecule = "COc1ccc2c(c1OC)C(=O)O[C@@H]2[C@H]1c2c(c([N+](=O)[O-])c3c(c2OC)OCO3)CCN1C [9-nitro-nos]"
study_system = "CEM cells"
data_value = 10

[[record]]
molecule = "COc1ccc2c(c1OC)C(=O)O[C@@H]2[C@H]1c2c(c(I)c3c(c2OC)OCO3)CCN1C [9-I-nos]"
study_system = "CEM cells"
data_value = 38.9

[[record]]
molecule = "COc1ccc2c(c1OC)C(=O)O[C@@H]2[C@H]1c2c(c(Br)c3c(c2OC)OCO3)CCN1C [9-Br-nos]"
study_system = "CEM cells"
data_value = 1.9

[[record]]
molecule = "COc1ccc2c(c1OC)C(=O)O[C@@H]2[C@H]1c2c(c(F)c3c(c2OC)OCO3)CCN1C [9-F-nos]"
study_system = "CEM cells"
data_value = 2.3

[[record]]
molecule = "COc1ccc2c(c1OC)C(=O)O[C@@H]2[C@H]1c2c(cc3c(c2OC)OCO3)CCN1C [Nos, reference compound]"
study_system = "CEM cells"
data_value = 16.6

[[record]]
molecule = "COc1ccc2c(c1OC)C(=O)OC2C1c2c(c(Cl)c3c(c2OC)OCO3)CCN1C (stereo not drawn) [9-Cl-nos]"
study_system = "CEM cells"
data_value = 1.2

